Listed below: %Inh values for each entry.
- Tested on: PKAC-alpha;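 also: KINOMEscan kinase panel screen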
- Construct: gene PRKACA
- condition-description: concentration: 1 μM, replicates: in singlicate; n = 1

molecule	system-tested	unit	%Inh
CC(=O)Nc1nc2cnc(Nc3cc(NC(=O)c4cccc(CCC#N)c4)ccc3C)nc2s1	PKAC-alpha	%	15
COc1cc(Nc2nccc(N3CCC(NC(=O)Nc4cc(C)ccc4C)C3)n2)cc(OC)c1OC (stereo not drawn)	PKAC-alpha	%	5
Cc1nnc(-c2ccc3occ(-c4ccc(S(C)=O)cc4)c3c2)[nH]1 (stereo not drawn)	PKAC-alpha	%	9
COc1ccc2nc(-c3cccc(C)n3)nc(Nc3ccncc3)c2c1	PKAC-alpha	%	3
COc1ccc(CNC(=O)NC2CCN(c3ccnc(Nc4cc(OC)c(OC)c(OC)c4)n3)C2)cc1 (stereo not drawn)	PKAC-alpha	%	0
Cc1cccc(-c2cc(Nc3ccncc3)c3ccccc3n2)n1	PKAC-alpha	%	0
Fc1cc(Cl)ccc1Nc1ccnc2cc(I)ccc12	PKAC-alpha	%	0
Nc1ncnc2[nH]c(-c3ccccc3)nc12	PKAC-alpha	%	1
Cc1cc(NCC(c2ccccc2)c2ccccc2)nc(NCc2ccc(C(F)(F)F)cc2)n1	PKAC-alpha	%	0
